B1: Zinc finger homeobox protein 4, residues 2183 to 2238; numbered along this chain, Q86UP3 (parent)
chain: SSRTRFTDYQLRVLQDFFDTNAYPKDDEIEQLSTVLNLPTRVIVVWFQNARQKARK

# Variants of: B1
# Measurement Protocol: abundance fitness (aPCA) (normalised: wild type 0, dead -1); higher = more abundant; growth selection in yeast, the domain comes from the species named
# Run Conditions: Homo sapiens
Label MET when abundance fitness >= -0.3; otherwise NOT MET.

Example entries begin here.
Mutation: Y23P
Group: NOT MET
//
Mutation: R3T
Group: MET
//
Mutation: T7L
Group: NOT MET

Prompt: Is reported abundance fitness greater than or equal to -0.3 here: L11C
Completion: NOT MET

Prompt: Query V13Y next
Completion: MET

Prompt: Note, next up: D16C
Completion: NOT MET

Prompt: Please do the same for Y23S as well.
Completion: MET

Prompt: Input A22C
Completion: MET

Prompt: What do we get for Q31F ?
Completion: MET

Prompt: Queued: L36Q
Completion: NOT MET

Prompt: Try this variant too: F18Q
Completion: NOT MET
